- Test system: CCRF-CEM
- Assay Notes: Cytotoxicity against human CEM cells assessed as growth inhibition after 72 hrs by MTT assay
- Format: functional, cell-based
Reported Endpoint: log10 of IC50 (log10 of the value in µM)
Values are log10 of IC50 in µM.

Request: log10 of IC50 of C=C(Br)C(=O)Nc1cccc(/C=C/C(=O)Nc2ccc(OC(F)(F)F)cc2)c1 on CCRF-CEM?
Result: 1.11

Request: Now consider C=C(Br)C(=O)Nc1cccc(/C=C/C(=O)Nc2ccc(Cl)cc2)c1 .
Result: -0.34

Request: Now consider COc1cc(NC(=O)/C=C/c2cccc(OCc3ccccc3)c2)cc(OC)c1OC .
Result: 1.24

Request: Now consider C=C(Br)C(=O)Nc1cccc(/C=C/C(=O)NCc2ccc(C)cc2)c1 .
Result: -0.26

Request: Now consider C=C(Br)C(=O)Nc1cccc(/C=C/C(=O)Nc2ccc(F)cc2)c1 .
Result: 1.22
